test: mitochondrial membrane potential change in A549 cells, profiling panel, cell-based, JC-1 fluorescence, basal, 24 h, 100 nL (AID 1138); conditions: higher = more signal;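 note: A549 lung adenocarcinoma cells under basal conditions with no added stimulus; test concentration not given here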
readoutName: z-score

1) CN1C(=O)[C@]2(CCC(=O)OC(C)(C)C)N=C(c3ccc(OCCCO)cc3)O[C@@H]2c2ccccc21; 1.85
2) CCOC(=O)C[C@H]1[C@H](OC(=O)c2ccc(-c3ccccc3)cc2)[C@@H](NC(=O)CC(C)C)c2cc(OCCCO)ccc2N1C(=O)Cc1ccc(OC)cc1; 0.598
3) O=C1OCCC/C=C\[C@H]2OC34C=CCN(Cc5ccccc5)C(=O)[C@H]3N(CCCCCO)C(=O)[C@@H]4C12 (some centres not stated); 0.537
4) CC(C)C[C@@H]1NC(=O)C([C@@H](C)OCc2ccccc2)NC(=O)[C@@]23C(=O)N[C@@H](Cc4ccccc4)C2[C@H](C)[C@@]2(C)O[C@H]2C3/C=C/CC/C=C/CNC1=O (some centres not stated); 0.728
5) COC(=O)[C@@]1(Cc2ccc(F)cc2)[C@H]2c3cc(C(=O)N(C)C)n(CCN4CCOCC4)c3C[C@H]2CN1C(=O)c1ccccc1; 0.147
6) C=C(CCCC)C(=O)CC[C@H](OC(=O)c1cccnc1)c1ccc(CO)o1; -0.555
7) COCCOC(=O)N1C(=O)[C@@]2(c3cc(C#CCC(C(=O)OC)C(=O)OC)ccc31)[C@H](C(=O)N1CCc3cc(OC)c(OC)cc3C1)[C@H]1C(=O)O[C@H](c3ccccc3)[C@H](c3ccccc3)N1[C@@H]2c1ccc(O)cc1; -0.132

====

assay: HepG2 cell viability effects, profiling panel, calcein-AM fluorescence, 48 h, basal (AID 1164); details: higher = more signal; note: test concentration not given here
// class assignment uses z-score with these ranges: one (below -0.3), two (-0.3 to below 0.5), three (0.5 or more)

1. C=CCOC(=O)[C@H]1[C@@H]2C(=O)O[C@@H](c3ccccc3)[C@@H](c3ccccc3)N2[C@@H](c2ccc(OCCOC(=O)[C@H]3C[C@H]4C(=O)NCC(=O)N4[C@H]3c3ccc(O)cc3)cc2)[C@]12C(=O)Nc1ccc(I)cc12; three
2. COCCOC(=O)N1C(=O)[C@@]2(c3cc(C#CCC(C(=O)OC)C(=O)OC)ccc31)[C@H](C(N)=O)[C@H]1C(=O)O[C@H](c3ccccc3)[C@H](c3ccccc3)N1[C@@H]2c1ccc(OCCO)cc1; two
3. CC(C)C[C@H]1NC(=O)[C@@H](C)NC(=O)[C@@]23C(=O)N[C@@H](Cc4ccccc4)C2[C@H](C)[C@@]2(C)O[C@H]2C3/C=C/C/C=C\CNC1=O (some centres undefined); one
4. C=CCC(OC(C)=O)[C@@H]1[C@@H](N(Cc2ccc(-c3cccc(C(F)(F)F)c3)o2)C(=O)Cc2ccc(OC)cc2)c2cc(OCCCO)ccc2N1C(=O)c1ccc2ccccc2n1 (some centres undefined); two
5. Cc1ccc(F)cc1S(=O)(=O)N[C@@H]1CCN(Cc2ccc3[nH]ccc3c2)C1; one
6. COC(=O)c1c(CC[C@@H](CO)NC(=O)N[C@@H](Cc2ccccc2)Cn2cc(-c3cncn3C)nn2)oc(C(C)=O)c1C(=O)OC; one
7. O=C1NC(=O)C2C1C=CC(C(O)c1ccc(F)cc1)N2Nc1ccccn1 (centres undefined); two
8. COCC(=C=CC[C@@H](O)c1cccc(OCCO)c1)C[C@@H](O)COCc1ccccc1; three
9. COCCOC(=O)N1C(=O)[C@@]2(c3ccccc31)[C@H](C(=O)N1CCCCCCC1)[C@H]1C(=O)O[C@H](c3ccccc3)[C@H](c3ccccc3)N1[C@@H]2c1ccc(O)cc1; three
10. C=CC[C@]1(C(=O)OC)N=C(c2ccc(OCCCO)cc2)O[C@H]1c1ccccc1N=[N+]=[N-]; one
11. CCOC(=O)C1=CCC(c2cc3ccccc3[nH]2)N(S(=O)(=O)c2ccccc2[N+](=O)[O-])C1 (centres undefined); three
12. C=C(/C(=C/C[C@H](OC(=O)c1ccncc1)c1ccccc1OCCO)c1cc(C(=O)OC)ccc1OC)C(C)C; two
13. [N-]=[N+]=NCc1ccccc1[C@H]1OC(c2ccc(OCCCO)cc2)=N[C@@]1(Cc1ccccc1)C(=O)N1CCOCC1; three
